Target: T1, cynomolgus monkey PVRIG on FlpinCHO-cyno PVRIG cells (cynomolgus monkey, UniProt A0A2K5WVV8 41-322)
T1 construct: whole, on cells
T1 sequence: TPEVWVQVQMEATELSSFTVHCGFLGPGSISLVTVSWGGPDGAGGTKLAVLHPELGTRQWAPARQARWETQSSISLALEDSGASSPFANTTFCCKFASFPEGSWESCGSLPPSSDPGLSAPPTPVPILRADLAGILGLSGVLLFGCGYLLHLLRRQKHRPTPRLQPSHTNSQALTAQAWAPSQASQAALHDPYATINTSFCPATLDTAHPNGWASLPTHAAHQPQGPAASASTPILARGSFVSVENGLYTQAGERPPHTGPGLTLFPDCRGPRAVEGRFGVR
Assay: FACS, FlpinCHO-cyno PVRIG cells
valueType: AUC % to parental Ab (%)
Give just the numeric value; % need not be written.

Problem: Hello, please tell me recorded AUC % to parental Ab for this one: PVRIG-A50-H1a (Fc fusion, humanized variant of PVRIG-A50; also called A50.VH1a; not shown: constant part not restated for the humanized forms; parents are VHH-hinge-CH2-CH3 of human IgG1; detected by anti-human) EVQLVESGGGLVQPGGSLRLSCAASGFTFSYYDMSWVRQAPGKGLEWVSTINSDGGRTSYVDSVKGRFTISRDNSKNTLYLQMNSLRAEDTAVYYCVEGDPHNFGLENLSLRDFGSWGQGTMVTVSS
Result: 86.5

Problem: Hello, please tell me recorded AUC % to parental Ab for this one: PVRIG-A118 (Fc fusion, heavy chain antibody VHH-hinge-CH2-CH3, human IgG1 constant part; not shown: human IgG1 hinge-CH2-CH3) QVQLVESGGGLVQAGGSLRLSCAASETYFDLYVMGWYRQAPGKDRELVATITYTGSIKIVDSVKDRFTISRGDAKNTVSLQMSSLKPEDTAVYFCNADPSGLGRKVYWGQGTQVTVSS
Result: 100
